The values you see were collected from the supplement of paper PMC10567573.

Recorded protein stability index values for a group of variants are listed next.
B1: MNAT1 (parent)
chain: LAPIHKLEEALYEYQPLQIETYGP

- Variants of: B1
- Procedure Text: protein stability index of a GFP-peptide fusion (GPS, HEK-293T) (PSI 1-6); higher = more stable;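 further: lentivirally expressed fusions sorted by FACS into six bins by GFP to DsRed ratio, PSI derived from sequencing read proportions per bin multiplied by bin number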
- Condition Notes: c terminus: a fixed tail appended
Answer with a number only.

In the examples that follow, each entry is paired with its recorded protein stability index.
Y22M : 2.01
Q15Y : 1.44
I19N : 3.25
Q18M : 1.85
K6A : 1.97

Could you now look at the following variant, please?
Exercise: Please look at this variant and report its protein stability index: I4T
Solution: 2.15
